Numbers sourced from ChEMBL document CHEMBL5131556.

tested.target: Synaptic vesicular amine transporter (Rattus norvegicus, UniProt Q01827)
Sequence (Q01827 whole entry): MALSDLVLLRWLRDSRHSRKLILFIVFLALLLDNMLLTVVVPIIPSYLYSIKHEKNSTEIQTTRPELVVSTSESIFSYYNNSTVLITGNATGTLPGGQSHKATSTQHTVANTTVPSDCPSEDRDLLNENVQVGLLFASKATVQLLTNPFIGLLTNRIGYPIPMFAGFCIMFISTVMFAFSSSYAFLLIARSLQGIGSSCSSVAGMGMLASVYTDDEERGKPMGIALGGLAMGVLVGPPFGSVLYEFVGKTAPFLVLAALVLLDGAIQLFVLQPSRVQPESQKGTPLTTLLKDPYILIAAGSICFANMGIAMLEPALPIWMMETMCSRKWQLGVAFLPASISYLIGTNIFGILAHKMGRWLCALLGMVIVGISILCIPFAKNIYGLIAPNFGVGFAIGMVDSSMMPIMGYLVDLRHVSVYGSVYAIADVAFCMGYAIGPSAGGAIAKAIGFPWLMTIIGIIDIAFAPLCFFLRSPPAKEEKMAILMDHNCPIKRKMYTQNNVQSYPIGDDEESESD
assay.remarks: Inhibition of rat VMAT2 transfected in HEK cells using FFN206 as fluorescent substrate preincubated for 1 hr followed by substrate addition and measured after 30 mins by fluorescence plate reader assay
measurement.name: pIC50
FYI, pIC50 means -log10 of a concentration in mol per litre.

-- ask Check the records and state pIC50 for CC[C@H]1C[C@@H]2C[C@H]3c4c(c5cc(OC)ccc5n4C)CCN(C2)[C@@H]13
-- reply 6.13

-- ask For the compound CC[C@H]1C[C@@H]2CC3c4[nH]c5ccc(O)cc5c4CCN(C2)[C@H]31 , report pIC50.
-- reply 6.24

-- ask Return reported pIC50. Input compound: CC[C@H]1C[C@@H]2C[C@H]3c4[nH]c5ccc(OC)c(Br)c5c4CCN(C2)[C@@H]13
-- reply 5.31

-- ask Query pIC50 for CCc1ccc2c(c1)c1c(n2C)[C@@H]2C[C@H]3C[C@H](CC)[C@@H]2N(CC1)C3
-- reply 6.12
